- Tested on: Pseudomonas aeruginosa KCTC 1637
- measurement description: ≥ marks a high value that may be exact or a test limit, other limits are often not marked, values filed in µg/mL are converted to µM
assay readout: MIC (µM)

CC[C@H](C)[C@H](NC(=O)[C@H](CCCCN)NC(=O)[C@H](CCCCN)NC(=O)[C@@H](N)Cc1c[nH]c2ccccc12)C(=O)N1CCC[C@H]1C(=O)N[C@@H](CCCCN)C(=O)N[C@@H](Cc1ccccc1)C(=O)N[C@@H](CC(C)C)C(=O)N[C@@H](Cc1cnc[nH]1)C(=O)N[C@@H](CC(C)C)C(=O)N[C@@H](C)C(=O)N[C@@H](CCCCN)C(=O)N[C@@H](CCCCN)C(=O)N[C@@H](Cc1ccccc1)C(N)=O ... 3.12
CC(C)C[C@H](NC(=O)[C@H](Cc1ccccc1)NC(=O)[C@H](CCCCN)NC(=O)[C@H](Cc1c[nH]c2ccccc12)NC(=O)[C@H](Cc1c[nH]c2ccccc12)NC(=O)[C@H](Cc1c[nH]c2ccccc12)NC(=O)[C@H](CCCCN)NC(=O)[C@H](Cc1ccccc1)NC(=O)[C@H](CCCN=C(N)N)NC(=O)[C@H](CCCN=C(N)N)NC(=O)[C@@H](N)C(C)C)C(=O)N[C@@H](CCCN=C(N)N)C(=O)N[C@@H](CCCN=C(N)N)C(N)=O ... 4
CC[C@H](C)[C@H](NC(=O)[C@H](CCCCN)NC(=O)[C@H](CCCCN)NC(=O)[C@H](Cc1ccccc1)NC(=O)[C@@H](N)Cc1c[nH]c2ccccc12)C(=O)N1CCC[C@H]1C(=O)N[C@@H](CCCCN)C(=O)N[C@@H](Cc1ccccc1)C(=O)N[C@@H](CC(C)C)C(=O)N[C@@H](Cc1cnc[nH]1)C(=O)N[C@@H](CC(C)C)C(=O)N[C@@H](C)C(=O)N[C@@H](CCCCN)C(=O)N[C@@H](CCCCN)C(=O)N[C@@H](Cc1ccccc1)C(N)=O ... 1.56

----------
- Tested on: Staphylococcus epidermidis ATCC 12228
So basically: is MIC under 20 µM? Then true. Not under? Then false.

NCC(=O)N[C@@H](CCCN=C(N)N)C(=O)N[C@@H](CCCN=C(N)N)C(=O)N[C@@H](Cc1c[nH]c2ccccc12)C(=O)N[C@@H](Cc1c[nH]c2ccccc12)C(=O)N[C@@H](Cc1c[nH]c2ccccc12)C(=O)N[C@@H](CCCN=C(N)N)C(=O)N[C@@H](CCCN=C(N)N)C(=O)NCC(N)=O ... true
CC[C@H](C)[C@H](NC(=O)[C@H](CCCN=C(N)N)NC(=O)[C@H](CCCCN)NC(=O)[C@H](CC(C)C)NC(=O)[C@H](CC(C)C)NC(=O)CNC(=O)[C@H](Cc1cnc[nH]1)NC(=O)[C@@H](NC(=O)[C@@H](N)C(C)C)[C@@H](C)CC)C(=O)N[C@@H](CCCCN)C(=O)N[C@H](C(=O)N[C@@H](CC(C)C)C(=O)N[C@@H](CC(C)C)C(N)=O)[C@@H](C)O ... true
CC[C@H](C)[C@H](NC(=O)[C@H](C)NC(=O)CNC(=O)[C@H](CC(C)C)NC(=O)[C@@H](N)Cc1ccccc1)C(=O)N[C@@H](C)C(=O)N[C@@H](CCC(N)=O)C(=O)N[C@@H](C)C(=O)N[C@@H](CC(C)C)C(=O)N[C@H](C(=O)N[C@@H](CO)C(=O)N[C@@H](CC(C)C)C(=O)N[C@@H](CC(C)C)C(=O)NCC(=O)N[C@@H](CCCCN)C(=O)N[C@@H](CC(C)C)C(N)=O)[C@@H](C)O ... true
CC(C)C[C@H](NC(=O)[C@H](CC(C)C)NC(=O)[C@@H](NC(=O)[C@H](CCCCN)NC(=O)[C@H](Cc1ccccc1)NC(=O)[C@H](CCCN=C(N)N)NC(=O)[C@H](CCCCN)NC(=O)[C@H](CC(C)C)NC(=O)[C@H](CC(C)C)NC(=O)CN)[C@@H](C)O)C(N)=O ... true
CC[C@H](C)[C@H](NC(=O)[C@H](CCCCN)NC(=O)[C@H](Cc1c[nH]c2ccccc12)NC(=O)[C@H](CC(C)C)NC(=O)[C@H](CCCN=C(N)N)NC(=O)[C@H](CCCCN)NC(=O)[C@H](CCCN=C(N)N)NC(=O)[C@@H](NC(=O)[C@H](CCCCN)NC(=O)[C@H](Cc1c[nH]c2ccccc12)NC(=O)[C@H](CCCN=C(N)N)NC(=O)[C@H](CC(C)C)NC(=O)[C@H](CCCN=C(N)N)NC(=O)[C@H](CCCN=C(N)N)NC(=O)[C@H](Cc1ccccc1)NC(=O)[C@@H](N)CCCN=C(N)N)[C@@H](C)O)C(N)=O ... false
CC(C)C[C@H](NC(=O)[C@H](CCCN=C(N)N)NC(=O)[C@H](Cc1c[nH]c2ccccc12)NC(=O)[C@H](CCCN=C(N)N)NC(=O)[C@@H](NC(=O)[C@H](Cc1c[nH]c2ccccc12)NC(=O)[C@H](Cc1c[nH]c2ccccc12)NC(=O)[C@H](CCCN=C(N)N)NC(=O)[C@H](CC(C)C)NC(=O)[C@H](Cc1c[nH]c2ccccc12)NC(=O)[C@@H](N)CCCN=C(N)N)[C@@H](C)O)C(=O)N[C@@H](CCCCN)C(N)=O ... true

Source listed as DBAASP.
